Exercise: state measured In vitro Activity Compared to Native Peptide (%) vs. GLP-1 for each of the binders provided.
molecular target: human GLP-1 receptor (human, UniProt P43220 24-463); assay: cell-based or functional assay
Positions of bridges follow the written chain, without caps; N, C: chain ends. Non-standard residues stand in square brackets, D forms with d. No end group written: not given here. *: point of attachment. Acetyl(2-(4-imidazolyl)) = O=C(Cc1c[nH]cn1)*; Aib = CC(C)(N)C(=O)O
One number for each entry, in %.

Ask | Any idea what In vitro Activity Compared to Native Peptide (%) vs. GLP-1 was measured for Y[Aib]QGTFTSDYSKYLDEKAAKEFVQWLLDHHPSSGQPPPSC (bridge 16-20) [triple agonist of SEQ ID NO: 75] ?
Reply | 35.1

Batch: In vitro Activity Compared to Native Peptide (%) vs. GLP-1 for all items listed.
1. Y[Aib]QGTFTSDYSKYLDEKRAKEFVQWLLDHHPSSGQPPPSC (bridge 16-20) [triple agonist of SEQ ID NO: 42]
2. Y[Aib]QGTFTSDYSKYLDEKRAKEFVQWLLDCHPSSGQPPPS (bridge 16-20) [triple agonist of SEQ ID NO: 97]
3. [Acetyl(2-(4-imidazolyl))][Aib]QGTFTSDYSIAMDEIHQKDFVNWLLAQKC (bridge 16-20) [triple agonist of SEQ ID NO: 92]
4. [Acetyl(2-(4-imidazolyl))][Aib]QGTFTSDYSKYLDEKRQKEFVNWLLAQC (bridge 16-20) [triple agonist of SEQ ID NO: 86]

Reply |
1: 33.9; 2: 10.5; 3: 0.8; 4: 28.4
